Sourced from ChEMBL document CHEMBL1800057

Consider the following compounds and their measured pEC50 readings.
# test system: Nitric oxide synthase, inducible (Mus musculus)
# Sequence (P29477 whole entry): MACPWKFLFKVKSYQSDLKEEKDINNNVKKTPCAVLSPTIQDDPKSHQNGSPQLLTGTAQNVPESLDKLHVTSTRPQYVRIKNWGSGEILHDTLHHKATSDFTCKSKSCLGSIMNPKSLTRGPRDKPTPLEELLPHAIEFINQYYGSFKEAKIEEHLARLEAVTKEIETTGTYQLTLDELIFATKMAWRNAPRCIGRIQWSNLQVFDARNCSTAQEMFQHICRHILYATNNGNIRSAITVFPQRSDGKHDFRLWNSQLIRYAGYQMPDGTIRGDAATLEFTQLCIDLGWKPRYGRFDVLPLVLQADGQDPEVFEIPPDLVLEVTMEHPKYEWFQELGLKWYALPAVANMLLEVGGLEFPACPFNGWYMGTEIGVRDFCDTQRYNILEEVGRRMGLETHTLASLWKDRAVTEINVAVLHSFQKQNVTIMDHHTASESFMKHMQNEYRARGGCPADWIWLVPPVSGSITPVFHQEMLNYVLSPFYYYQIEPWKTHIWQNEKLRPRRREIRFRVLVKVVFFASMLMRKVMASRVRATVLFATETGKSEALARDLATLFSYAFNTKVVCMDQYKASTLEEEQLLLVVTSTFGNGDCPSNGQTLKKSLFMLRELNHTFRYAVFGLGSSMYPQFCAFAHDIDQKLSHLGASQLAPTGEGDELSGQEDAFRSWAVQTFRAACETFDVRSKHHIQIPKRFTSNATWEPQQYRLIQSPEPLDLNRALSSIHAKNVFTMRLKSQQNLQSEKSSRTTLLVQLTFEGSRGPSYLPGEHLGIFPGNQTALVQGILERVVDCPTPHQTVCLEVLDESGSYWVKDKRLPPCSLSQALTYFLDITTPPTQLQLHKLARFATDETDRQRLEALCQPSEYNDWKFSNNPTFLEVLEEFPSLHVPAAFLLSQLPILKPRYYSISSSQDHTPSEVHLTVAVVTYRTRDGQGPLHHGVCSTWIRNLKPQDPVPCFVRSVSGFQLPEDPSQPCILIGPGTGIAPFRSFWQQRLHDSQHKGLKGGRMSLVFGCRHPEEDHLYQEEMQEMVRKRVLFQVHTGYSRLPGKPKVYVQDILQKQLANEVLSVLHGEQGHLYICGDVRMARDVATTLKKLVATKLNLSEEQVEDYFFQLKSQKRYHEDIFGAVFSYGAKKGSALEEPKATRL
# protocol details: Inhibition of mouse iNOS expressed in HEK293 cells assessed as inhibition of nitric oxide production after 18 hrs using 2,3-diaminonaphthalene by fluorescence assay
pEC50 is a log-scale quantity: -log10 of the concentration expressed in molar.

Need pEC50 of O=c1cc(Cn2c(C3CCC3)nc3nccnc32)c2ccc(F)c(F)c2[nH]1 , thanks.
6.37

Could you do the same for O=c1cc(Cn2c(C3CC(F)(F)C3)nc3nccnc32)c2cccc(F)c2[nH]1 , please?
5.48

For CC(C)c1nc2ccccc2n1Cc1cc(=O)[nH]c2c(F)c(F)ccc12 then?
5.36

// next record O=c1cc(Cn2c(C3CCC3)nc3ccccc32)c2ccc(F)c(F)c2[nH]1
5.68

--- query ---
pEC50 lookup needed for CN(C)c1ccnc2c1nc(C1CCC1)n2Cc1cc(=O)[nH]c2c(F)c(F)ccc12 , thanks.
5.74
